molecular target: LRRK2 (Homo sapiens (Human), UniProt Q5S007, G2019S); experiment: In Vitro LRRK2 LabChip Assay (LRRK2 Ki)
Sequence (Q5S007 970-2527 G2019S): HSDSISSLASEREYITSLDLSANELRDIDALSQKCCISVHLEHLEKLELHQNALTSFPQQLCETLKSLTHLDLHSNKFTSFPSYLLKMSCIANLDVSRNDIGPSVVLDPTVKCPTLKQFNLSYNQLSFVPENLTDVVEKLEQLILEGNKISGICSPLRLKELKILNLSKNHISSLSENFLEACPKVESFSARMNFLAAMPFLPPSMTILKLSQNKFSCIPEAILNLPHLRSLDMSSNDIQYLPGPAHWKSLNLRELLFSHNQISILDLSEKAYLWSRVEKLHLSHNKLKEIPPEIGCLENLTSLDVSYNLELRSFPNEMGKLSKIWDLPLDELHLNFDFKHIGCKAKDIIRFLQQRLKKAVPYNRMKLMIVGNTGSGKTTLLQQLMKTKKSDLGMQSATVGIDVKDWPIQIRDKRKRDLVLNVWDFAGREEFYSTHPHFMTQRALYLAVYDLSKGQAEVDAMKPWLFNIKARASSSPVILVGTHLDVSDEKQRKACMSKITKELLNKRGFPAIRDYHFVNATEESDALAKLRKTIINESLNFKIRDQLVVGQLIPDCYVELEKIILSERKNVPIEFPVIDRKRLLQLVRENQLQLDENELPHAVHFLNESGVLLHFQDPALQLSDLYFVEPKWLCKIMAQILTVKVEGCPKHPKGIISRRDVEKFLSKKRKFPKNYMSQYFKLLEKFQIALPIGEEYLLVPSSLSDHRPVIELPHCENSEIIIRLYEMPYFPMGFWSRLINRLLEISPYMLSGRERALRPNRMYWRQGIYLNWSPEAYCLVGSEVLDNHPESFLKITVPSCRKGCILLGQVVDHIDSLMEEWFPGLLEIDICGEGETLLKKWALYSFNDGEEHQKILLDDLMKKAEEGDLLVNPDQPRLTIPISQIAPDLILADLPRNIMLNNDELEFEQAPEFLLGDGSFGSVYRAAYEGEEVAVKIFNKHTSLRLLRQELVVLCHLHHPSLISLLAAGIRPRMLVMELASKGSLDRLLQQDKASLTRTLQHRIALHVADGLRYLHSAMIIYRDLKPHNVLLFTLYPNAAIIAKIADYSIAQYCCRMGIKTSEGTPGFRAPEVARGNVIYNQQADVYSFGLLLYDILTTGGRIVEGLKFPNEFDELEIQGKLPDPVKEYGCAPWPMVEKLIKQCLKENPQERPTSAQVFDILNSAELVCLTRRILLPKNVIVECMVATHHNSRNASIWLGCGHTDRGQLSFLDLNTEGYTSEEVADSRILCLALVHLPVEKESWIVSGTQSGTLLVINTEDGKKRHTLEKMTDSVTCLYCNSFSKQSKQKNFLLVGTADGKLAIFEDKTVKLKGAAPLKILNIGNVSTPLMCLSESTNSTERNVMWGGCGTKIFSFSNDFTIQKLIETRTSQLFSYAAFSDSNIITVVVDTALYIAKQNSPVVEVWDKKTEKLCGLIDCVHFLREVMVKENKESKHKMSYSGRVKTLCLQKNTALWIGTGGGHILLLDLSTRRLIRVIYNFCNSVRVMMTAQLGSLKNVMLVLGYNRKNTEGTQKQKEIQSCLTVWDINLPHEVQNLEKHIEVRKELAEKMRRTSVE
measurement_name: Ki

>>> result("CNc1nc(Nc2cc(F)c(CN3CCOCC3)cc2OC)ncc1C#N")
"27 nM"
>>> result("CCS(=O)(=O)c1cc(OC)c(Nc2ncc(C(F)(F)F)c(NC)n2)cc1C")
"3 nM"
>>> result("CNc1nc(Nc2ccc(C#N)cc2OC)ncc1C(F)(F)F")
"8 nM"
>>> result("CNc1nc(Nc2ccc(C#N)cc2OC)ncc1Cl")
"8 nM"
>>> result("CNc1nc(Nc2cc(C)c(C#N)cc2Cl)ncc1C(F)(F)F")
"46 nM"
>>> result("CCNc1nc(Nc2cc(F)c(CN3CCOCC3)cc2OC)ncc1C#N")
"14 nM"
>>> result("CNc1nc(Nc2cc(C)c(C#N)cc2OC)ncc1C(F)(F)F")
"12 nM"
>>> result("CNc1nc(Nc2cc(F)c(CN3CCOCC3)cc2OC)ncc1C(F)(F)F")
"56 nM"
>>> result("CNc1nc(Nc2ccc(C(F)(F)F)cc2OC)ncc1C(F)(F)F")
"23 nM"
>>> result("CNc1nc(Nc2cc(Cl)c(C(=O)O)cc2OC)ncc1Cl")
"36 nM"
>>> result("CNc1nc(Nc2ccc(C(F)(F)F)cc2OC)ncc1Cl")
"35 nM"
>>> result("CNc1nc(Nc2ccc(S(C)(=O)=O)cc2OC)ncc1Cl")
"2 nM"
>>> result("CNc1nc(Nc2ccc(S(C)(=O)=O)cc2OCCF)ncc1Cl")
"12 nM"
>>> result("CNc1nc(Nc2cc(F)c(C3COC3)cc2OC)ncc1C(F)(F)F")
"3 nM"
>>> result("CNc1nc(Nc2ccc(C(=O)O)cc2OC)ncc1Cl")
"7 nM"
>>> result("CNc1nc(Nc2ccc(N3CCOCC3)cc2OC)ncc1Cl")
"9 nM"
>>> result("CNc1nc(Nc2cc(F)c(C#N)cc2OC)ncc1C(F)(F)F")
"22 nM"
>>> result("CNc1nc(Nc2cc(F)c(S(C)(=O)=O)cc2OC)ncc1C(F)(F)F")
"3 nM"
>>> result("CNc1nc(Nc2ccc(S(C)(=O)=O)cc2OC(C)C)ncc1C(F)(F)F")
"17 nM"
>>> result("CCNc1nc(Nc2cc(F)c(CN3CCOCC3)cc2OCCF)ncc1C(F)(F)F")
"2 nM"
>>> result("CNc1nc(Nc2ccc(S(C)(=O)=O)cc2OC)ncc1C(F)(F)F")
"2 nM"
>>> result("CNc1nc(Nc2ccc(S(=O)(=O)N3CCOCC3)cc2OC)ncc1C(F)(F)F")
"47 nM"
>>> result("CNc1nc(Nc2ccc(S(C)(=O)=O)cc2Cl)ncc1Cl")
"8 nM"
>>> result("CCNc1nc(Nc2ccc(S(C)(=O)=O)c3c2OCCO3)ncc1C(F)(F)F")
"3 nM"
>>> result("COc1nc(Nc2ccc(S(C)(=O)=O)cc2OCCF)ncc1Cl")
"12 nM"
>>> result("CNc1nc(Nc2ccc(CN3CCOCC3)cc2OC)ncc1C(F)(F)F")
"3 nM"
>>> result("CNc1nc(Nc2cc(C)c(S(C)(=O)=O)cc2OC)ncc1C(F)(F)F [Example 36]")
"3 nM"
>>> result("CNc1nc(Nc2cc(F)c(N3CCOCC3=O)cc2OC)ncc1C(F)(F)F")
"3 nM"
>>> result("CCNc1nc(Nc2cc(C)c(S(C)(=O)=O)cc2OC)ncc1C(F)(F)F")
"3 nM"
